Data origin: the Kinase Knowledgebase extract (Sharma et al. 2016)

# experimental.system: EGFR (human) (UniProt P00533)
# Sequence (P00533 whole entry, looked up): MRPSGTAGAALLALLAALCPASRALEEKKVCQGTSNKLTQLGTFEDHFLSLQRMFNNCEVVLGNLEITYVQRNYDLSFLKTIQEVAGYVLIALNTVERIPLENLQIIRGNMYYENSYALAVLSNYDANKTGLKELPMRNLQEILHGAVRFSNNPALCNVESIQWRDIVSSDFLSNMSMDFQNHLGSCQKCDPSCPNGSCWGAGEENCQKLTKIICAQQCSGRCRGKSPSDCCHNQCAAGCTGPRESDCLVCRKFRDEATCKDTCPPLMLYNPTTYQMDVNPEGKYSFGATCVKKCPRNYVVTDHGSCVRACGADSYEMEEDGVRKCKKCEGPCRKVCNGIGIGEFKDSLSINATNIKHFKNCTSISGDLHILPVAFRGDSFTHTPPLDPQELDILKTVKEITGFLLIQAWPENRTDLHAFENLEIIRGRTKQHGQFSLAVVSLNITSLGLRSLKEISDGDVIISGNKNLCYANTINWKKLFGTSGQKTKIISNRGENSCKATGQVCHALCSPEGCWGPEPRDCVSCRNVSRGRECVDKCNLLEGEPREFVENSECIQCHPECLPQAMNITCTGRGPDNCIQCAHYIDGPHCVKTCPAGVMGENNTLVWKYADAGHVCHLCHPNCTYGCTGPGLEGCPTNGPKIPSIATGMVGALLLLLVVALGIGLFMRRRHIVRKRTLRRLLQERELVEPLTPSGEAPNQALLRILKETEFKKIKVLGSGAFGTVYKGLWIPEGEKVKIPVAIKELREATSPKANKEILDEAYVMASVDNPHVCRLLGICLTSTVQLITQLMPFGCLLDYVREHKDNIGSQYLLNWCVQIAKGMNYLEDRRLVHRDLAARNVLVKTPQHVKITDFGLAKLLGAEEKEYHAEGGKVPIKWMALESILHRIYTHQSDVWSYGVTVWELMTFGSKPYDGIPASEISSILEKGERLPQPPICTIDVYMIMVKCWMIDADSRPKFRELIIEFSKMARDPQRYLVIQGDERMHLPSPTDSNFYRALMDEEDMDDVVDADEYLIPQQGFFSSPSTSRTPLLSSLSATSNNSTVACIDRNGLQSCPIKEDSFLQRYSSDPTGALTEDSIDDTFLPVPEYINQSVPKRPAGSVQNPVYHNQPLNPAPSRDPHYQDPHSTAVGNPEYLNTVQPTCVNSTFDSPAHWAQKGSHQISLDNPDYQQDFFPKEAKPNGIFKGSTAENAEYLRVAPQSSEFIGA
# experimental.context: a431
quantity.name: IC50
State the result as a value with its unit after it.

Input: API: value(readout=IC50, system=EGFR (human) (UniProt P00533)) for record CN(C)C/C=C/C(=O)Nc1cnc2ncc(C#N)c(Nc3cccc(Br)c3)c2c1
Output: 2.76 µg/mL

Input: API: value(readout=IC50, system=EGFR (human) (UniProt P00533)) for record N#Cc1cnc2cnc(N)cc2c1Nc1cccc(Br)c1
Output: 0.4 µg/mL

Input: API: value(readout=IC50, system=EGFR (human) (UniProt P00533)) for record CN(C)C/C=C/C(=O)Nc1cc2c(Nc3cccc(Br)c3)c(C#N)cnc2cn1
Output: 0.088 µg/mL

Input: API: value(readout=IC50, system=EGFR (human) (UniProt P00533)) for record N#Cc1cnc2cnc(F)cc2c1Nc1cccc(Br)c1
Output: 3.92 µg/mL

Input: API: value(readout=IC50, system=EGFR (human) (UniProt P00533)) for record N#Cc1cnc2cnc(NCCN3CCOCC3)cc2c1Nc1cccc(Br)c1
Output: 0.5 µg/mL
